system: RXF 393 renal; assay: NCI-60 one-dose screen, 48 h; conditions: 10 µM unless noted
Compounds without any hit were thinned out: in the full panel of roughly 83,000, 20% have a hit. The source made the active and inactive calls. Rule for the calls: active = growth percent below 10; inactive = the rest.
Outcome (select one): active, inactive

Some solved cases for reference:
compound	assigned.category
CCOC(=O)c1cn2c3c(cc(C)cc3c1=O)C(=O)/C(=C/c1ccccc1)C2	inactive
COc1ccc(/C=C2/C(=O)NC(SCC(=O)N3CCN(c4cc5c(cc4F)c(=O)c(C(=O)O)cn5C4CC4)CC3)=NC2N)cc1OC (stereo not given)	inactive
CC(C)(C)OC(=O)NCCc1ccc(N=C=S)cc1	inactive
COc1cc(NCCCCCN)c2ncccc2c1	inactive
CC(C)(C)n1cc(-c2ccnc(NCCNS(=O)(=O)c3ccc(Cl)cc3)c2)c(-c2cccc(O)c2)n1	inactive
O=C(NNC(=O)N1c2ccccc2C=Cc2ccccc21)c1ccc2ccccc2c1	inactive

Request: Give the logged outcome of this assay for the following compound: O=c1ccn(C2CC(O)C(O)C(CO)O2)c(=O)[nH]1 (stereo not given)
Response: inactive

Request: Could you please tell me the result logged for `COc1ccc(/C=C2\CN(Cc3cn(CCNc4ccnc5cc(Cl)ccc45)nn3)C/C(=C\c3ccc(OC)c(OC)c3)C2=O)cc1OC` in this assay?
Response: active

Request: Which result was noted for this compound in the test: `COc1ccc(S(=O)(=O)n2ccc(-c3ccc4c(c3)CCC(C)(C)O4)n2)cc1OC`
Response: inactive

Request: Outcome logged for `O=C1Nc2ccc3c(c2/C1=C\c1cc2c(cc1Br)OCO2)OCO3` in this assay:
Response: active
